assay: NCI Yeast Anticancer Drug Screen. Data for the bub3 strain (AID 167); conditions: S. cerevisiae bub3 mutant strain, at 5.0 µM (retest, dose inferred, filed as 0.5), hits give high values
The panel holds about 79,000 compounds, 15% with a hit somewhere; the sample as a whole holds those more often.
Measured growth inhibition, listed per entry.
Quantity Name: growth inhibition (%)

Compound | Observed Result
C[CH2][Sn]1([CH2]C)[O]S(=O)(=O)[O]1 | 13
O=[N+]([O-])c1ccc(C2C3CC4C(OOC42)C3I)cc1 (configuration not stated) | 28
CC(CCc1ccccc1)NC(C)C(O)c1ccc(O)cc1 (configuration not stated) | 9
[O-][n+]1ccccc1S | 99
CN(CCCl)Cc1ccc(OCc2ccccc2)c(OCc2ccccc2)c1 | 0
CCN1C(C)N1P(=S)(OC1CC(C)(C)N(O)C(C)(C)C1)OC1CC(C)(C)N(O)C(C)(C)C1 (configuration not stated) | -5
CCC[CH2][Sn]1([CH2]CCC)[O]CC(CN2CCOCC2)[O]1 (configuration not stated) | 22
CC(=O)O[C@H]1C(=O)O[C@@H]2C[C@H]3C(C)=CC(=O)[C@@H](O)[C@]3(C)[C@H]3[C@@]4(O)OC[C@]32[C@@H]1[C@@H](C)[C@H]4O | 1
CC/C(=C\c1ccccc1)[N+](=O)[O-] | 28
COC(=O)C1c2c(C)cc3n2C(C=CC3)C1C(=O)OC (configuration not stated) | 64
BrP(NC1CCCCCC1)(c1ccccc1)(c1ccccc1)c1ccccc1 | 25
CCCCCCCCCCCCCC(=O)[O][Hg][c]1ccccc1 | 99
CCOP(=O)(OCC)/C(C#N)=C/c1cccc(F)c1 | -12
NCCNCCNCCNCCN (tested in a mixture with another compound) | -1
Cc1cc(C(C)(C)c2ccc(O)c(C)c2)ccc1O | -1
CNP1(=O)OC(c2ccccc2)=CCN1CCCl (configuration not stated) | 0
CC(=O)[CH-]C(C)=O.CC(=O)[CH-]C(C)=O.N=CC=N.[Sn+2] | 98
CC(=O)Oc1ccc(/C=C/[N+](=O)[O-])cc1 | 5
O=C(CCCc1ccccc1)[O][Hg][c]1ccccc1 | 99
O=[N+]([O-])c1ccc(CS(=O)(=O)C(Cl)(Cl)Cl)o1 | 8
CCCCCc1cc(OC(=O)CCCN(CC)CC)c2c(c1)OC(C)(C)[C@@H]1CCC(C)=C[C@@H]21 | 27
C#CC1(OC(C)=O)CCC2C3CC=C4C=C(OC(C)=O)CCC4(C)C3CCC21C (configuration not stated) | 1

====

assay: NCI Yeast Anticancer Drug Screen. Data for the mlh1 rad18 strain (AID 175); details: S. cerevisiae mlh1 rad18 strain growth inhibition; at 50.0 µM
This is part of a sample that, as a whole, favours compounds with a hit. Of some 79,000 tested, about 15% had one in any assay. Active and inactive are the calls of the source. Rule as the data show it: active = growth inhibition above about 70%; inactive = the rest.
Classes used: 1.0 = active, 0.0 = inactive

Molecule | Cat
N#CS.N=C=S.N=C=S.[Cu+2].[NH2-].[NH2-].[NH2-].[NH2-].c1ccc2ncccc2c1 | 0.0
CC(C)CCC1(CC[N+](C)(C)C)C(=O)NC(=O)NC1=O | 0.0
CC(=O)[O-].CC(=O)[O-].O=C([CH-]C(=O)c1ccccc1)c1ccccc1.[Nd+3].[OH3+] | 1.0
O=P(O)(O)CCCP(=O)(O)O.[Zn+2] | 0.0
CC1(C)OCC(C2NC2C2COC(C)(C)O2)O1 (stereo unspecified) | 0.0
[Mn+3].[O-][Cl+3]([O-])([O-])O.[O-]c1ccccc1C=NCCN1CC1.[O-]c1ccccc1C=NCCN1CC1 | 1.0
COc1cccc(NC2=NCCO2)c1 | 0.0
CCCCCCCCCCCCCCC[As](=O)(O)CCCCCCCCCCCCCCC | 0.0
C#CC[As+](c1ccccc1)(c1ccccc1)c1ccccc1 | 1.0
O=C1NC(=O)C2(CCc3ccc(N(CCCl)CCCl)cc32)N1 (stereo unspecified) | 0.0
NC1(P(=O)(O)O)CCCCC1 | 0.0

====

assay: NCI Yeast Anticancer Drug Screen. Data for the rad50 strain (AID 155);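 further: 0% = growth of vehicle-only cultures of the same strain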; details: S. cerevisiae rad50 strain growth inhibition; at 50.0 µM; hits give high values
Compounds without any hit were thinned out: in the full panel of roughly 79,000, 15% have a hit.
Measured growth inhibition, listed per entry.
Quantity Name: growth inhibition (%)

Compound | Unit String | Observed Result
CCCCCCCCCCCCCCCCCCC[As](=O)(O)CCCCCCCCCCCCCCCCCCC | % | 46.2
Nc1cccc([As]=S)c1 (stereo not drawn) | % | 98.5
CC12CCCCC1C(=O)C2(Cl)Cl (stereo not drawn) | % | 11.8
O=[N+]([O-])c1ccc(Cl)c(Cl)c1 | % | 20.9
CN1CN(c2ccccc2)C2(CCN(CCCSc3ccccc3NC(=O)/C=C/c3ccccc3)CC2)C1=O | % | 20
BrCCCCCCBr | % | -5.65
O=C(O)c1ccc(Cl)c(Cl)c1.[Ni] | % | -19.1
COc1ccc(CO)cc1 | % | -1.5
[CH3][Sb]1([Cl])[CH2]CC[CH2]1 | % | 0.2
CCCC1NCCOC1(O)c1ccccc1 (stereo not drawn) | % | -11.2
CC(=O)OC1CC2(O)C(CCC3(C)C(c4ccc(=O)oc4)CCC32O)C2(C)C1=CC(O)C1OC12 (stereo not drawn) | % | 3.95
C=CC[As](=O)(O)c1ccccc1Cl | % | 96
Nc1ccccc1C(=O)c1ccccc1 | % | 76.2

====

experiment: NCI Yeast Anticancer Drug Screen. Data for the bub3 strain (AID 167); details: S. cerevisiae bub3 mutant strain, at 50.0 µM, hits give high values
Compounds without any hit were thinned out: in the full panel of roughly 79,000, 15% have a hit.
Label scheme for growth inhibition: lower than 90% is Not fulfilled, 90% and above is Fulfilled.

Compound | Cat
CC(CCC/C=C/CCCN(C)C(=N)N)CC(C)C1OC(=O)C(C)C(O)/C=C/C(C)C(O)C(C)C(O)C(C)C(O)CCCC(O)CC2(O)OC(CC(OC(=O)CC(=O)O)CC(O)CC(O)C(C)C(O)/C=C/C=C/C1C)CC(O)C2O (centres undefined) | Fulfilled
CC(Cl)CN1COc2ccc3ccc4c(c3c2C1)CN(CC(C)Cl)CO4 (centres undefined) | Not fulfilled
O=NN(CC(=O)O)c1ncccn1 | Not fulfilled
CC(=O)Oc1ccc(C=C(C#N)C#N)cc1 | Not fulfilled
CCOC(=O)/C(=C\c1cccc(F)c1)[Se]c1ccccc1 | Not fulfilled
O=C1CN=CN1 | Not fulfilled

====

experiment: NCI Yeast Anticancer Drug Screen. Data for the bub3 strain (AID 167); settings: S. cerevisiae bub3 mutant strain, at 50.0 µM, hits give high values
The panel holds about 79,000 compounds, 15% with a hit somewhere; the sample as a whole holds those more often.

Molecule | growth inhibition [%]
Cn1nc(-c2ccc(S(=O)(=O)F)cc2)s/c1=N/NC(=O)c1ccccc1 | 18.6
CCC[CH2][Sn]1([CH2]CCC)[O]C(=O)CN=C(C)c2ccccc2[O]1 | 9.8
CC1(C)CCCC(C)(C)N1[P-]C(=O)[P-]N1C(C)(C)CCCC1(C)C.[C-]#[O+].[C-]#[O+].[C-]#[O+].[C-]#[O+].[C-]#[O+].[C-]#[O+].[Fe].[Fe] (stereo not given) | -5.7
CC1(C)N=C(N)N=C(N)N1c1ccc(OCC(=O)Nc2cccc(S(=O)(=O)F)c2)c(Cl)c1 | -1.45
CCOC(=O)C(C(=O)OCC)P(=S)(S)c1ccccc1 (stereo not given) | -9.6
CC/C(=C/c1ccc(OC)cc1)[N+](=O)[O-] | 99.3
C[CH2][Pb]([CH2]C)([CH2]C)[O]C(C)=O | 82.4
OCC[N+]12CN3CN(CN(C3)C1)C2 | 4.55
O=C(O)C(O)C(O)C(O)C(O)C(O)C(O)CO (stereo not given) | 3
[O]=[Sb]([OH])([OH])[c]1ccc(NC2OC(CO)C(O)C(O)C2O)cc1 (stereo not given) | 91.8

====

experiment: NCI Yeast Anticancer Drug Screen. Data for the bub3 strain (AID 167); settings: S. cerevisiae bub3 mutant strain, at 50.0 µM, hits give high values
The panel holds about 79,000 compounds, 15% with a hit somewhere; the sample as a whole holds those more often. Activity calls are given as the source filed them. Cut-off read from the data, not from the text of the source: active = growth inhibition above about 70%; inactive = the rest.

Molecule | growth inhibition
Cc1cc(C)c(C[N+](C)(C)C)c(C)c1C | 99.4% (active)
COC(=O)C1C2CC3c4c(c5ccc(OC)cc5n4[N+](=O)[O-])CCN3CC2CC(OC(=O)c2cc(OC)c(OC)c(OC)c2)C1OC (stereo not drawn) | -22.2% (inactive)
C[CH2][Pb]([CH2]C)([CH2]C)[O]C(=O)COc1ccc(Cl)cc1Cl | 95.6% (active)
CN(Cc1cnc2nc(N)nc(N)c2n1)c1ccc(C(=O)NC(CCC(=O)NCC(P(=O)(O)O)P(=O)(O)O)C(=O)O)cc1 (stereo not drawn) | -15.8% (inactive)
O=C(O)c1ccc([As](=O)(O)O)cc1[N+](=O)[O-] | -3.6% (inactive)
CC1=NNC(=O)C1(Br)Br | 43.1% (inactive)
Oc1ccc(Nc2c3ccc(Cl)cc3nc3ccc(-c4ccccc4)cc23)cc1CN(CCCl)CCCl | 93.5% (active)
O=C(O)c1ccccc1O.[Cu] | -19.1% (inactive)
CO[C@H]1Nc2c(ccc(C)c2O)C(=O)N2C=C(/C=C/C(N)=O)C[C@@H]12 | 90.3% (active)
COC(CN1CCOCCOCCOCC1)CN1CCOCCOCCOCC1 | 14.2% (inactive)
CC(=O)[O-].CC(=O)[O-].O=C(N/N=C/c1cc(Cl)cc(Cl)c1[OH2+])c1ccncc1.[Zn+2] | 32.6% (inactive)
COc1ccc(NC2Oc3cc4c(cc3C(c3cc(OC)c(OC)c(OC)c3)C2C)OCO4)cc1 (stereo not drawn) | 17.1% (inactive)
[Pt].c1ccc([PH+](CC[PH+](CC[PH+](c2ccccc2)c2ccccc2)c2ccccc2)CC[PH+](c2ccccc2)c2ccccc2)cc1 (stereo not drawn) | 16.6% (inactive)
CCN1C(C)N1P(=S)(OC1CC(C)(C)N(O)C(C)(C)C1)OC1CC(C)(C)N(O)C(C)(C)C1 (stereo not drawn) | 98.1% (active)
COc1cc(CC[N+](C)(C)C)cc(OC)c1OC | 9.5% (inactive)
CN(C)c1ccc(-c2ccc(N(C)C)cc2)cc1 | 3.2% (inactive)
NC(=O)c1cc([N+](=O)[O-])c(Cl)c([N+](=O)[O-])c1 | 88.5% (active)
C=CCCOC(=O)CO[N+](=O)[O-] | -4.25% (inactive)
C[n+]1c[se]cn1 | -14.1% (inactive)
CN1CCC23CC=CCC2C1Cc1ccc([N+](=O)[O-])cc13 (stereo not drawn) | 2.4% (inactive)
CC1C(c2ccccc2)OCCN1C (stereo not drawn) | -16.4% (inactive)
NC(=O)C(Cl)(Cl)Cl | -5.65% (inactive)
N=C(N)c1ccc(NN=Nc2cccc3c2Oc2ccccc2O3)cc1 | 83.5% (active)
